- Tested on: human Factor 7 mRNA
- protocol-details: Dose-dependent antisense inhibition of human Factor 7 in HepB3 cells, transfection with lipofectin
- Assay type: cell-based
- test-context: lipofectin, HepB3 cells, 16 hours
In the oligonucleotide strings, read from the 5' end, every base follows the letter of its sugar. An asterisk marks phosphorothioate; unmarked linkages are phosphodiester. Other units and linkages are bracketed, terminal groups are in braces. A string of capitals states the bases alone. e = 2'-O-(2-methoxyethyl) (MOE); [5mC] = 5-methylcytosine; d = 2'-deoxy (DNA)
parameter: percent inhibition of Factor 7 mRNA, relative to untreated control cells (%)

1) 422183 (antisense eG*e[5mC]*eG*d[5mC]*d[5mC]*dA*d[5mC]*d[5mC]*d[5mC]*dG*d[5mC]*d[5mC]*dG*dG*d[5mC]*dT*d[5mC]*eT*eG*e[5mC]) [compound 422183] ... 37
2) 422152 (antisense eA*eT*eG*d[5mC]*dA*dT*dG*dG*dT*dG*dA*dT*dG*d[5mC]*dT*dT*d[5mC]*eT*eG*eA) [compound 422152] ... 29
3) 422140 (antisense eG*eT*eT*e[5mC]*eT*dG*d[5mC]*dA*dG*dG*dA*dG*d[5mC]*dG*dG*e[5mC]*e[5mC]*eT*eA*eA) [compound 422140] ... 35
4) 422150 (antisense eG*e[5mC]*eA*dT*dG*dG*dT*dG*dA*dT*dG*d[5mC]*dT*dT*d[5mC]*dT*dG*eA*eA*eT) [compound 422150] ... 23
5) 407939 (antisense eT*eG*e[5mC]*eA*eG*d[5mC]*d[5mC]*d[5mC]*dG*dG*d[5mC]*dA*d[5mC]*d[5mC]*d[5mC]*eA*eG*e[5mC]*eG*eA) [compound 407939] ... 35
